test: Hepatic metabolic stability (hepatocyte clearance) assay, substrate depletion
Type: in vitro ADME, human
run.conditions: both sexes, human, hepatocytes; hepatocyte time course; NS = slope not significant; read-out: Linear Regression Results, Best-Fit Values, Half Life

>  <compound>
OCC(F)(F)C(F)(F)C(F)(F)C(F)(F)C(F)(F)C(F)(F)C(F)(F)C(F)(F)CO [1H,1H,10H,10H-Perfluorodecane-1,10-diol]

>  <half-life at 1 μM [min]>
24.5

$$$$
>  <compound>
Cc1ccc(S(=O)(=O)OCC(F)(F)C(F)(F)C(F)(F)C(F)(F)C(F)(F)C(F)F)cc1

>  <half-life at 1 μM [min]>
44.7

$$$$
>  <compound>
NC(=O)C(F)(F)C(F)(F)C(F)(F)C(F)(F)F [Nonafluoropentanamide]

>  <half-life at 1 μM [min]>
39.7

$$$$

----------
System: human plasma
test: Ultracentrifugation (UC) plasma protein binding assay, fraction unbound in plasma (fup)
run.conditions: median fraction unbound in plasma, UC assay Level4

>  <compound>
OCCCC(F)(F)C(F)(F)C(F)(F)F

>  <Fup.Med>
0.202

$$$$
>  <compound>
C=C(C)C(=O)OCCC(F)(F)C(F)(F)C(F)(F)C(F)(F)C(F)(C(F)(F)F)C(F)(F)F

>  <Fup.Med>
4.30E-06

$$$$
>  <compound>
FC(F)(F)C(F)(F)C(F)(F)C(F)(F)CCI [1H,1H,2H,2H-Perfluorohexyl iodide]

>  <Fup.Med>
0.0824

$$$$
>  <compound>
NC(=O)C(F)(F)C(F)(F)C(F)(F)C(F)(F)C(F)(F)C(F)(F)C(F)(F)F [Perfluorooctanamide]

>  <Fup.Med>
0.0252

$$$$
>  <compound>
FC(F)C(F)(F)COCC1CO1 (centres unmarked)

>  <Fup.Med>
0.63

$$$$
>  <compound>
OCC(F)(F)C(F)(F)C(F)(F)C(F)F

>  <Fup.Med>
0.791

$$$$
>  <compound>
NC(=O)C(F)(F)C(F)(F)C(F)(F)C(F)(F)F [Nonafluoropentanamide]

>  <Fup.Med>
0.192

$$$$
>  <compound>
OCC(F)(F)C(F)(F)C(F)(F)C(F)(F)C(F)(F)C(F)(F)C(F)(F)C(F)(F)CO [1H,1H,10H,10H-Perfluorodecane-1,10-diol]

>  <Fup.Med>
0.00408

$$$$
>  <compound>
O=C(CC(=O)C(F)(F)C(F)(F)C(F)(F)F)c1cccs1

>  <Fup.Med>
0.00944

$$$$
>  <compound>
Cc1ccc([N+](=O)[O-])cc1 [4-Nitrotoluene, 4-nitrotoluene, reference compound]

>  <Fup.Med>
0.0679

$$$$
>  <compound>
OCC(F)(F)C(F)(F)C(F)(F)CO

>  <Fup.Med>
0.627

$$$$
>  <compound>
OCCCC(F)(F)C(F)(F)C(F)(F)C(F)(F)C(F)(F)C(F)(F)C(F)(F)C(F)(F)F

>  <Fup.Med>
0.0348

$$$$
>  <compound>
C=CC(=O)OCCC(F)(F)C(F)(F)C(F)(F)C(F)(F)F [2-(Perfluorobutyl)ethyl acrylate]

>  <Fup.Med>
2.26E-06

$$$$
>  <compound>
FC(F)(I)C(F)(F)C(F)(F)C(F)(F)C(F)(F)C(F)(F)I

>  <Fup.Med>
0.295

$$$$
